subject.of.test: CDK12–cyclin K and DDB1 (Homo sapiens, UniProt Q16531+Q9NYV4, K965R)
Construct: His6–CDK12 (a.a. 713–1,052); full-length or beta-propeller B domain deletion (ΔBPB: a.a. 396–705 deleted) constructs of His6–DDB1ΔBPB, StrepII–Avi–DDB1, or His6–Spy–DDB1; made in house; host or cells: Trichoplusia ni High Five insect cells (baculovirus)
Sequence (Q9NYV4 713-1052 K965R): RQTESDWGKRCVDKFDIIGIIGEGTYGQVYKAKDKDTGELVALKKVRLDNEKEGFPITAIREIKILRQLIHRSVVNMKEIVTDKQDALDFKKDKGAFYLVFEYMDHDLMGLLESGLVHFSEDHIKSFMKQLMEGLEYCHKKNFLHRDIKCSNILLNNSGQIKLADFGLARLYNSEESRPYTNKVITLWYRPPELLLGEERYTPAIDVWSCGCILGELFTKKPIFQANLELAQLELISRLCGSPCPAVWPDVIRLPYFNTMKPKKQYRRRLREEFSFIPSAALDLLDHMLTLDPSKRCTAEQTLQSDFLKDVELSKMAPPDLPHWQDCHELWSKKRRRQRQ
Sequence (O75909 1-267 partner): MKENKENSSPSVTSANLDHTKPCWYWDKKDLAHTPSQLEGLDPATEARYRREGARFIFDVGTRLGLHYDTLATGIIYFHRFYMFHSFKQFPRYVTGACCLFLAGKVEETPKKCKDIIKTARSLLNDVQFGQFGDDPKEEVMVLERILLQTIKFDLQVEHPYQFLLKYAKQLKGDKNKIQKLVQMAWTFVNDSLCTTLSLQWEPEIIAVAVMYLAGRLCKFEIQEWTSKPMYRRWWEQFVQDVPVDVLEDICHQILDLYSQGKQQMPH
Sequence (Q16531 whole entry): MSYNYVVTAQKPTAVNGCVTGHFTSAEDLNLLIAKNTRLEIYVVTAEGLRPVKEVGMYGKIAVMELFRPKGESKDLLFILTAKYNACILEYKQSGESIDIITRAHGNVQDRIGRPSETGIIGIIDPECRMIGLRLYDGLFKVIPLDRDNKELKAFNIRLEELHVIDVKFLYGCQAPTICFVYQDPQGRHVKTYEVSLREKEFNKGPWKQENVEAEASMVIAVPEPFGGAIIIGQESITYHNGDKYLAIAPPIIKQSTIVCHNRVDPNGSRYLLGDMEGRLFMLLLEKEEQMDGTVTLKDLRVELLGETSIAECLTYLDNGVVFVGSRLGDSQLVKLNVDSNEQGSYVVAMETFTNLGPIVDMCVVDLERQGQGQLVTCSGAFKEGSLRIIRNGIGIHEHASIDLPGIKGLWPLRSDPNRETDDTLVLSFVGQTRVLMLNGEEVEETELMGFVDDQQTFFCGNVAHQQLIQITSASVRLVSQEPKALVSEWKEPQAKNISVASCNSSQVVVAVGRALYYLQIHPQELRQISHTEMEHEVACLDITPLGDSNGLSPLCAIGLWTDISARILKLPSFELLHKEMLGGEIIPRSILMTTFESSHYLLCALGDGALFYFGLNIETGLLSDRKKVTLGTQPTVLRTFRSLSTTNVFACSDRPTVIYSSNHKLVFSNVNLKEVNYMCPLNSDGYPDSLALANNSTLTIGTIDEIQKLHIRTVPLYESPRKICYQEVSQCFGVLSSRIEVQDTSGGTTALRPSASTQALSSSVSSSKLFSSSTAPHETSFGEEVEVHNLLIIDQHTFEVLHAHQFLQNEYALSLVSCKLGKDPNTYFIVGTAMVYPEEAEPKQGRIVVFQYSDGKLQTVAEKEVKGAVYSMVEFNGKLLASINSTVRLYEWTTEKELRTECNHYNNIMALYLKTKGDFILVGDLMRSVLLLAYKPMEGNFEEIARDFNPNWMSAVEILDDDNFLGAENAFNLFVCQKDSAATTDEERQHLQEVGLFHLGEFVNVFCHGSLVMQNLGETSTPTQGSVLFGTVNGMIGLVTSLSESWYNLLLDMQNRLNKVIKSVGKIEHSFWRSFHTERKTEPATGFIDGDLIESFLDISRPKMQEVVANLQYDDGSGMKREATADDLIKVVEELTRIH
protocol.summary: TR-FRET ternary complex formation assay (compound titration)
Format: binding
experimental.context: source data sheet correlations; read-out: TR-FRET EC50
parameter.measured: pEC50
Give bare numbers, as −log10 of the molar value.

Observe how each entry below is paired with its result.
>  <compound>
CC(C)n1cnc2c(NCc3ccc(-c4ccccn4)cc3)nc(NCc3c(Cl)cncc3Cl)nc21

>  <pEC50>
7.34

$$$$
>  <compound>
CC[C@H](CO)Nc1nc(NCCCc2cccc(C)n2)c2ncn(C(C)C)c2n1

>  <pEC50>
7.44

$$$$

Give pEC50 for each of the items listed below.
1. COc1cc2nc(CN3CCc4sccc4C3)[nH]c(=O)c2cc1OC
2. CC(C)c1nn(-c2c(Cl)cccc2Cl)c2nc(Cc3ccc(OCCO)cc3)[nH]c(=O)c12
3. CC[C@H](CO)Nc1nc(NCCCc2cccc(C)c2)c2ncn(C(C)C)c2n1
4. CC[C@H](CO)Nc1nc(NCc2ccn(-c3cccc(Cl)c3)n2)c2ncn(C(C)C)c2n1
5. Cc1cccc(Nc2nc(CC(=O)Nc3ncc(C)s3)cs2)n1
6. Fc1ccc2[nH]c(CNc3nc(N4CCOCC4)nc4c(Br)cnn34)nc2c1F

Response:
1. 6.08
2. 7.92
3. 7.46
4. 7.36
5. 7.37
6. 7.91

Would you mind giving pEC50 for every compound in the list below?
1. CC[C@H](CO)Nc1nc(NCc2ccc(-c3ccccn3)c(F)c2)c2ncn(C(C)C)c2n1
2. Cc1ccc(C(=O)N2CSCC2C(=O)Nc2ncc(C)s2)o1 (stereo not drawn)
3. CC[C@H](CO)Nc1nc(NCc2ccc(OCCO)cc2)c2ncn(C(C)C)c2n1
4. COc1ccccc1CCNC(=O)CNc1nc(NCc2ccc(-c3ccccn3)cc2)c2ncn(C(C)C)c2n1
5. CCC(CO)Nc1nc(NCc2ccc(-c3ccccc3)cc2)c2ncn(C(C)C)c2n1 (stereo not drawn)
6. CC[C@H](CO)Nc1nc(NCc2ccc(-c3ccncc3)nc2)c2ncn(C(C)C)c2n1
7. CC[C@H](CO)Nc1nc(NCCCc2cccc(O)c2)c2ncn(C(C)C)c2n1
8. Cc1cc2nc(CNc3nc(N4CCN(C)CC4)nc4c(Br)cnn34)[nH]c2cc1C [DS73, reference compound]

Response:
[7.11, 6.55, 6.77, 5.72, 7.78, 7.56, 6.98, 7.81]

For every record below, what is its pEC50?
1. CC[C@H](CO)Nc1nc(NCc2ccc(-c3ccncc3)cc2)c2ncn(C(C)C)c2n1
2. CC(C)n1cnc2c(NCc3ccc(-c4ccccn4)cc3)nc(N[C@@H](Cc3ccc(OCc4ccccc4)cc3)c3nnc[nH]3)nc21
3. Cc1nn(C)c(CNc2nc(NCc3ccc(-c4ccccn4)cc3)c3ncn(C(C)C)c3n2)c1S(N)(=O)=O

Response:
7.45
6.02
7.00

Provide reported pEC50 for each item, in the same order as listed.
1. CC[C@H](CO)Nc1nc(NCCCc2ccc(Cl)c(Cl)c2)c2ncn(C(C)C)c2n1
2. Cn1cc(-n2cnc3c(NCc4nc5cc(Cl)c(Cl)cc5[nH]4)nc(NCCc4cn[nH]c4)nc32)cn1
3. CCc1cccc(CCCNc2nc(N[C@H](CC)CO)nc3c2ncn3C(C)C)c1
4. Cn1cc(-c2cnn3c(NCc4nc5cc(Cl)c(Cl)cc5[nH]4)nc(N4CCOCC4)nc23)cn1
5. CC[C@H](CO)Nc1nc(NCc2ccc(-c3cccnc3)cc2)c2ncn(C(C)C)c2n1

Response:
7.68
7.14
7.52
7.70
7.35
